Origin of the recorded values: PubChem BioAssay AID2685

assayInfo: qHTS Assay for Lipid Storage Modulators in Drosophila S3 Cells;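 as to cell number change: cells counted by Cell Tracker Red CMTPX staining in the red channel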
testContext: BODIPY lipid droplet fluorescence, 18-24 h, cells fed with added oleic acid; measured here: cell count max response
The campaign covered roughly 320,000 compounds. About 2,100 (0.66%) were called active. About 53% were inconclusive and are not listed. The list comes from a sample in which actives are over-represented; it also holds close analogues and randomly drawn compounds.
Let's look at some molecules and their measured cell number change.
Kindly provide the numeric value in % only, without the unit symbol.

CC(C)n1nc(C(=O)Nc2cccc(S(=O)(=O)NCc3ccco3)c2)c2ccccc2c1=O ... -6.04
Cn1c(=O)c2c(nc(NCCCO)n2CCc2ccccc2)n(C)c1=O ... -21.6
Cn1c(=O)c2c(nc(NCCCO)n2C/C=C/c2ccccc2)n(C)c1=O ... -27.3
CCN(CC)CCNc1nc2c(c(=O)n(C)c(=O)n2C)n1C/C=C(/C)Cl ... -1.05
Oc1ccc(Br)cc1/C=N/N1CCN(Cc2cccc3ccccc23)CC1 ... 17
O=C1CN(C(=O)COC(=O)Cc2ccsc2)c2ccccc2N1 ... 4.09
CCOC(=O)C1=NNC2C(=O)N(CC)C(=O)C12 (stereo not drawn) ... 12.2
CC(=O)c1ccc(N(CC(=O)NC2CCCCC2)C(=O)c2csnn2)cc1 ... -0.427

QUERY: Consider the molecule shown here: "N#CC1=C(Nc2ccccc2)SC=C(c2ccc(Cl)c(Cl)c2)N=C1N1CCOCC1" What is its recorded cell number change?
RESULT: -15.3

QUERY: Consider the molecule shown here: Cc1ccc(-c2ccc3nnc(SCC(=O)NCC4CCCO4)n3n2)cc1 (stereo not drawn) What is its recorded cell number change?
RESULT: 7.62

QUERY: Consider the molecule shown here: "CCS(=O)(=O)c1ccc2oc(Nc3ccc(C(C)C)cc3)nc2c1" What is its recorded cell number change?
RESULT: 2.93

###

assayInfo: qHTS Assay for Lipid Storage Modulators in Drosophila S3 Cells
testContext: BODIPY lipid droplet fluorescence, 18-24 h, cells fed with added oleic acid; series mostly up to 46.1 µM
Hit rate of the full screen: of about 320,000 compounds, about 2,100 (0.66%) were called active. About 53% were inconclusive and are not listed. The call rests on the fitted dose curve; in most records, active means well fitted inhibition curve with a large enough effect in the signal ratio, with a control signal flat (not every such curve was filed as active); inconclusive means small, poorly fitted or top-dose-only effect, or effect the other way, or a change in a side signal; inactive means flat fitted curve, though single readings scatter; the % refers to the signal ratio. This is one part of a sample in which actives are shown more often than they occur.
Write down the outcome that applies. Available outcomes: active, inactive

Cc1cc(C)n2nc(C(=O)NNC(=O)c3ccc(Cl)cc3)nc2n1 ... active
C=CCc1ccccc1OCCn1nnc2ccccc21 ... inactive
CSC(=NC1CCCCC1)NS(=O)(=O)c1ccccc1 ... inactive
COc1cccc(NC(=O)C2C3C=CC4(O3)C2C(=O)N(CCN2CCCCC2)C4C(=O)NC2CCCCC2C)c1 (configuration not stated) ... active
Clc1ccc(NNc2ccnc3cc(Cl)ccc23)cc1 ... inactive

QUERY: Assay result, entry "COc1ccc2[nH]c(C)c(CN3CCCCC3)c(=O)c2c1" — outcome?
RESULT: inactive

QUERY: Assay result, entry COC(=O)C1=C(C)N(C(C)C)C(=O)C1(NC(=O)C1CCCCC1)C(F)(F)F (configuration not stated) — outcome?
RESULT: active

QUERY: Assay result, entry "C/C(CC(=O)Nc1cccc(C(F)(F)F)c1)=N\NC(=O)c1ccncc1" — outcome?
RESULT: active

QUERY: Assay result, entry "CCc1ccc(NC(=O)c2nc(S(=O)(=O)Cc3ccccc3)ncc2Cl)cc1" — outcome?
RESULT: active

QUERY: Assay result, entry CC(C)c1ccc(NC(=O)C2C3C=CC4(O3)C2C(=O)N(CCCN2CCCCC2)C4C(=O)NC2CCCCC2)cc1 (configuration not stated) — outcome?
RESULT: inactive

QUERY: Assay result, entry "COc1ccc(OCCC(=O)OCC(=O)Nc2ccc(S(=O)(=O)N3CCOCC3)cc2)cc1" — outcome?
RESULT: inactive

QUERY: Assay result, entry "O=C(COc1ccccc1)NCc1ccccc1" — outcome?
RESULT: inactive

QUERY: Assay result, entry "Cc1cc(C)n2nc(C(=O)OCC(=O)NNC(=O)c3ccc(Cl)cc3)nc2n1" — outcome?
RESULT: inactive

QUERY: Assay result, entry "Cc1cc(C)n2nc(C(=O)NNC(=O)c3ccccc3)nc2n1" — outcome?
RESULT: inactive

QUERY: Assay result, entry COC(=O)C1=C(C)N(C2CCCC2)C(=O)C1(NC(C)=O)C(F)(F)F (configuration not stated) — outcome?
RESULT: inactive

QUERY: Assay result, entry "CCN(CC)c1ccc(/C=N/N2CC(=O)NC2=S)cc1" — outcome?
RESULT: active

QUERY: Assay result, entry "O=C(Nn1c(=O)[nH]c2ccsc2c1=O)c1ccccc1" — outcome?
RESULT: inactive

QUERY: Assay result, entry CC(C)CC(NC(=O)COc1ccccc1)C(=O)O (configuration not stated) — outcome?
RESULT: inactive

QUERY: Assay result, entry COc1cccc(NC(=O)C2C3C=CC4(O3)C2C(=O)N(CCCN2CCCC(C)C2)C4C(=O)NC2CCCCC2C)c1 (configuration not stated) — outcome?
RESULT: inactive

QUERY: Assay result, entry CCN(CC)CCCN1C(=O)C2C(C(=O)Nc3ccc(C(C)C)cc3)C3C=CC2(O3)C1C(=O)NC1CCCCC1 (configuration not stated) — outcome?
RESULT: active

QUERY: Assay result, entry COc1ccc(NC(=O)C2C3C=CC4(O3)C2C(=O)N(CCCN2CCCCC2)C4C(=O)NC2CCCC(C)C2C)cc1 (configuration not stated) — outcome?
RESULT: inactive

QUERY: Assay result, entry CN(CC1CCCO1)S(=O)(=O)c1ccc(C(=O)Nc2ccc3c(c2)OCO3)cc1 (configuration not stated) — outcome?
RESULT: inactive

QUERY: Assay result, entry "COC(=O)CNC(=O)COc1ccccc1" — outcome?
RESULT: active

QUERY: Assay result, entry O=C1CC(NS(=O)(=O)c2cc(F)ccc2F)CN1c1ccc2c(c1)OCCO2 (configuration not stated) — outcome?
RESULT: inactive
